- Experimental Target: GDP-bound KRAS wild-type protein (Homo sapiens, UniProt P01116)
- Sequence (P01116 1-188 isoform P01116-2): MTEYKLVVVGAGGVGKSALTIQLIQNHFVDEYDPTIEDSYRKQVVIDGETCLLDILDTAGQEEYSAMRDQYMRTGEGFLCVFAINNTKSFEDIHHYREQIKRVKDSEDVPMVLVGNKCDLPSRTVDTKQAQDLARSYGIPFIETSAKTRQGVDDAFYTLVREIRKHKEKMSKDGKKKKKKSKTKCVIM
- Assay Remarks: Binding to KRAS by surface plasmon resonance (SPR), dissociation constant KD
- Experimental Setup: Single Cycle Kinetics
Threshold-based label: Kd under 0.3 nM gives label 1, Kd not under 0.3 nM gives label 0.

C=C(C)C[C@H]1C(=O)N(C)[C@H](C(=O)N(C)C)CC(=O)N(C)[C@@H](CCC)C(=O)N[C@@H]([C@@H](C)CC)C(=O)N2CCC[C@H]2C(=O)N(C)[C@H]2C/C=C\CCN(C2=O)[C@@H](Cc2ccc(C(F)(F)F)cc2)C(=O)N(C)CC(=O)N[C@@H](CCc2ccc(C(F)(F)F)c(OC)c2)C(=O)N2C[C@H](OCC)C[C@H]2C(=O)N(C)C2(CCC2)C(=O)N1C; label 0
CCO[C@@H]1C[C@H]2C(=O)NC3(CCC3)C(=O)N(C)[C@@H](C3CCCC3)C(=O)N(C)[C@H](C(=O)N3CCOCC3)CC(=O)N(C)[C@@H](CC(C)C)C(=O)N[C@@H]([C@@H](C)CC)C(=O)N(C)CC(=O)N(C)[C@H]3CCCCCN(C3=O)[C@@H](Cc3ccc(F)cc3)C(=O)N(C)CC(=O)N[C@@H](CCc3ccc(C(F)(F)F)c(Cl)c3)C(=O)N2C1; label 0
CCC[C@H]1C(=O)N[C@@H]([C@@H](C)CC)C(=O)N2CCC[C@H]2C(=O)N(C)[C@H]2C/C=C\CCN(C2=O)[C@@H](Cc2ccc(C)cc2)C(=O)N(C)CC(=O)N[C@@H](CCc2ccc(C(F)(F)F)c(OC)c2)C(=O)N2CC[C@H](OC)[C@H]2C(=O)N(C)C2(CCC2)C(=O)N(C)[C@@H](C2CCCC2)C(=O)N(C)[C@H](C(=O)N(C)C)CC(=O)N1C; label 1
C#CC[C@H]1C(=O)N[C@@H]([C@@H](C)CC)C(=O)N(C)CC(=O)N(C)[C@H]2C/C=C\CCN(C2=O)[C@@H](Cc2ccc(C)cc2)C(=O)N(C)CC(=O)N[C@@H](CCc2ccc(C(F)(F)F)c(Cl)c2)C(=O)N2C[C@H](OCC)C[C@H]2C(=O)N(C)C2(CCC2)C(=O)N(C)[C@@H](C2CCCC2)C(=O)N(C)[C@H](C(=O)N(C)C)CC(=O)N1C; label 1
CCCC[C@@H]1NC(=O)C[C@@H](C(=O)N(C)C)N(C)C(=O)[C@H](C2CCCC2)N(C)C(=O)C2(CC(C)(C)C2)NC(=O)[C@@H]2C[C@@H](OCC)CN2C(=O)[C@H](CCc2ccc(C(F)(F)F)c(OC)c2)NC(=O)CN(C)C(=O)[C@H](Cc2ccc(C(F)(F)F)cc2)N2CC/C=C\C[C@@H](C2=O)N(C)C(=O)CN(C)C(=O)[C@H]([C@@H](C)CC)NC1=O; label 1

Please look at the following molecule next.
Q: Problem: For the molecule CCCO[C@@H]1C[C@H]2C(=O)NC3(CC(C)(C)C3)C(=O)N(C)[C@@H](C3CCCC3)C(=O)N(C)[C@H](C(=O)N(C)CC)CC(=O)N(C)[C@@H](COCC)C(=O)N[C@@H]([C@@H](C)CC)C(=O)N3C[C@@H](C)C[C@H]3C(=O)N(C)[C@H]3C/C=C\CCN(C3=O)[C@@H](Cc3ccc(C(F)(F)F)cc3)C(=O)N(C)CC(=O)N[C@@H](CCc3ccc(C(F)(F)F)c(OC)c3)C(=O)N2C1 , is Kd under 0.3 nM?
A: label 0

// data source = patent EP4603105A1
